B1: EHMT1 (parent)
chain: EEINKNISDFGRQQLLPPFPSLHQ

# Variants of: B1
# TEST: protein stability index of a GFP-peptide fusion (GPS, HEK-293T) (PSI 1-6); higher = more stable;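 further: lentivirally expressed fusions sorted by FACS into six bins by GFP to DsRed ratio, PSI derived from sequencing read proportions per bin multiplied by bin number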
# COND: c terminus: a fixed tail appended
ASSAY READOUT: protein stability index
Answers are plain numbers.

Example entries and their recorded answers appear below.
MUTATION DESCRIPTOR: L16V
ASSAY READOUT: protein stability index
MEASURED RESULT: 3.33

MUTATION DESCRIPTOR: S21Y
ASSAY READOUT: protein stability index
MEASURED RESULT: 2.54

MUTATION DESCRIPTOR: N6I
ASSAY READOUT: protein stability index
MEASURED RESULT: 2.17

MUTATION DESCRIPTOR: Q13D
ASSAY READOUT: protein stability index
MEASURED RESULT: 3.25

State recorded protein stability index for all listed variants.
1. E1F
2. Q14C

Reply:
1: 2.3; 2: 2.18
